viability at 48 h, 25 µM listing for selected compounds.
assay: in vitro; settings: human, hek293t cells

| COMPOUND | viability at 48 h, 25 µM |
| --- | --- |
| CC(NC(=O)C(C#N)=Cc1ccco1)c1cccc(-n2ccnc2)c1 (stereo not shown) | 127% |
| CC(Cl)C(=O)N(Cc1cnn(C)c1)c1ccc(F)cc1 (stereo not shown) | 114% |
| O=C(CCl)Cc1cc(Cl)cc(Cl)c1 | 3.97% |
| N#CC(=Cc1ccc(Cl)cc1Cl)C(=O)Nc1ccncc1 | 67% |

* * *

assay: in vitro; conditions: human, hek293t cells
viability at 48 h, 25 µM listing for selected molecules.
ENDPOINT: viability at 48 h, 25 µM (%)

| MOLECULE | OBSERVED_VALUE |
| --- | --- |
| CC(Cl)C(=O)NCC1CCCN(c2nccn3cnnc23)C1 (centres unmarked) | 102 |
| CC(Cl)C(=O)N[C@H]1CCC(=O)N[C@@H]1c1ccnn1C (mixture of isomers) | 92.4 |
| C=C(Cl)CN(C(=O)CCl)C1CCc2ccccc21 (centres unmarked) | 0.322 |
| CC(Cl)C(=O)Nc1ccccc1C#N (centres unmarked) [6-A11, 2-chloro-N-(2-cyanophenyl)propanamide] | 97.2 |
| NS(=O)(=O)c1ccc(CNC(=O)CCl)cc1 | 0.879 |
| C=CC(=O)Nc1cccc(-c2nnnn2C(C)C)c1 | 98.3 |
| COc1ccc(CCNC(=O)C(C)Cl)cc1 (centres unmarked) | 104 |
| C=CC(=O)NCC(C)(C)c1coc(-c2ccccc2)n1 | 45.6 |
| C=CC(=O)N1CCC(C(=O)NCc2ncc(N(C)C)cn2)CC1 | 68.2 |
| C=CC(=O)N(Cc1c(F)cc(C)cc1Cl)C1CCCOCC1 (centres unmarked) | 99 |
| Cc1c(C=C(C#N)C(=O)Nc2cnc3ccccc3c2)cc(C#N)n1C | 111 |
| CC(Cl)C(=O)NCc1nc(-c2cccc(C#N)c2)c[nH]1 (centres unmarked) | 113 |
| C=CC(=O)NCCC1COCCO1 (centres unmarked) | 74.3 |
| COC(=O)c1cc(C(=O)CCl)c(C)o1 | 76.4 |
| COc1c(C)cnc(CN2CCC(N(C)C(=O)C(C)Cl)CC2)c1C (centres unmarked) | 124 |
| O=C(CCl)N(Cc1ccccc1)c1ccccc1 [4-G13, N-benzyl-2-chloro-N-phenylacetamide] | 1.23 |
| N#CCCN(Cc1ccco1)C(=O)CCl | 1.25 |
| C=CC(=O)NCc1n[nH]c(=O)n1C1CC1 | 80 |
| C=CC(=O)NC(C)c1ccc(-n2ccnn2)cc1 (centres unmarked) | 59.2 |
| C=CC(=O)NCC1CCc2cccnc21 (centres unmarked) | 47.8 |
| COc1ccc(NC(=O)C(C)Cl)cc1Cl (centres unmarked) | 90.7 |
| CCC(NC(=O)CCl)c1ccc(C)cc1 (centres unmarked) | 2.62 |
| C=CC(=O)N1CCOCC1c1cc(F)cc(F)c1 (centres unmarked) | 81.8 |
| N#CC(=Cc1ccc(O)cc1)C(=O)Nc1ccc(Cl)cc1Cl | 82.3 |
| C=CC(=O)NC(C1CCC1)C1CCOC1 (centres unmarked) | 113 |
| C=CC(=O)NCC1CCN(S(=O)(=O)C(F)(F)F)CC1 | 83.3 |
| C=CC(=O)NC(Cn1cncn1)c1ccccc1 (centres unmarked) | 71.9 |
| CNC(=O)CC(NC(=O)CCl)c1ccc(F)cc1F (centres unmarked) | 18.5 |
| O=C(CCl)NCC(F)(F)c1cccnc1 | 104 |
| N#CCCN(C(=O)CCl)c1ccccc1F | 1.04 |
| C=CCNC(=O)C(C#N)=Cc1cccc(O)c1 | 113 |
| Cc1ccc(C)c(N2C(=O)C=CC2=O)c1 | 109 |
| COc1ccc(C=C(C#N)C(=O)Nc2cccc(C(F)(F)F)c2)cc1 | 72.2 |
| C=CC(=O)NC1COCC1C (centres unmarked) [1-D06, N-(4-methyloxolan-3-yl)prop-2-enamide] | 77.2 |
| O=C(CCl)NCC(c1ccccc1)c1c[nH]c2ccccc12 (centres unmarked) | 0.717 |
| C=CC(=O)N(C)Cc1noc(C2CC2)n1 | 60.3 |
| C=CC(=O)N1Cc2ccccc2C[C@@H]1C(=O)NC1CC1 | 101 |
| C=CC(=O)N1CCC(C(=O)NCc2ccc(OC)cn2)CC1 | 59 |
